Exercise: state measured chromatographic logD for each of the molecules provided.
Measurement description: logD determined by multi-parameter QSRR models from IS-RPLC logkw
Conditions used: IS-RPLC retention (logkw), pH 10
Experimental: Multi-parameter QSRR models including logD, logkw, ne, A, and B were established using the multiple linear regression (MLR) method. In the process of linear fitting, ne, A, B, and their different combinations were introduced to optimize the models. The logD values reported in the literature for these four compounds were calculated using Equation (S3) with corresponding pKa, logP, and pH values. […]
Numbers only.

These recorded examples may help you get a feel for the data.
- Molecule: "Nc1ccc(I)cc1"
  chromatographic logD: 2.08
- Molecule: "c1ccc(CNCc2ccccc2)cc1"
  chromatographic logD: 3
- Molecule: "COc1nc(C)nc(N)n1"
  chromatographic logD: 0.86
- Molecule: "O=C(O)c1cc(O)nc(O)c1"
  chromatographic logD: 1.87
- Molecule: "Cc1c[nH]cn1"
  chromatographic logD: 0.07

Hi there! I need chromatographic logD for each item below, if you can.
1. CCC(C(N)=O)N1CCCC1=O (centres unmarked)
2. Nc1ncncn1
3. O=C(n1ccnc1)n1ccnc1
4. Nc1ccc(Br)cc1

[reply]
0.04
0.88
-0.89
1.81

Hi there! I need chromatographic logD for each item below, if you can.
1. CCc1ccccn1
2. Nc1cccc(S(=O)(=O)c2cccc(N)c2)c1

[reply]
1: 1.65; 2: 0.69

* * *

Measurement description: physchem
Conditions used: pH 9
Measured parameter: chromatographic logD
Numbers only.

- Chemical structure: "CCc1ccccc1N"
  chromatographic logD: 1.75

Hi there! I need chromatographic logD for each item below, if you can.
1. Nc1ccc([N+](=O)[O-])cc1[N+](=O)[O-]
2. Nc1ccccc1N
3. Nc1c(Cl)cc([N+](=O)[O-])cc1[N+](=O)[O-]
4. Nc1cccc(N)c1
5. Nc1ccc([N+](=O)[O-])cc1Cl
6. Cc1cc([N+](=O)[O-])ccc1N

[reply]
1. 1.58
2. 0.07
3. 1.99
4. -0.41
5. 1.93
6. 1.31

* * *

Measurement description: IS-RPLC retention on silica-based C18 column, logkw by linear solvent strength model
Assay type: physicochemical
Conditions used: pH 9
Kindly apply the following: class 1 if logkw-pH 9.0 is less than 1, class 0 in every other case.

Worked set:
- Molecule: "Cc1c[nH]cn1 [4-Methylimidazole]"
  Category: "class 1"
- Molecule: "Nc1ccccc1N [1,2-diaminobenzene]"
  Category: "class 1"
- Molecule: "Cc1ccccc1N [2-Methylaniline]"
  Category: "class 0"
- Molecule: "Cc1ccc(N)c(C)c1 [2,4-Dimethylaniline]"
  Category: "class 0"
- Molecule: "CN(C)c1ccccc1 [N, N-Dimethylaniline]"
  Category: "class 0"

[ask] Decide: logkw-pH 9.0 of COc1ccc(N)cc1 [4-Methoxyaniline] strictly below 1?
[reply] class 0

[ask] Decide: logkw-pH 9.0 of Cc1ccc(N)cc1 [4-Methylaniline] strictly below 1?
[reply] class 0

[ask] Decide: logkw-pH 9.0 of COc1ccccc1N [2-Methoxyaniline] strictly below 1?
[reply] class 0

* * *

Conditions used: pH 9.0; calculated with literature logP, pKa and pH, Equation (S3)
Description: The retention behavior of the 42 basic compounds (Table 1) were investigated at different ratios of methanol (φ = 0.7–0.1, the interval was 0.1 or 0.05 based on the retention of the investigated solutes). […] The logD values of the model compounds and verification compounds calculated using Equation (S3) based on the logP and pH values are also listed in Table 1. At each pH, the retention time (tR) of every analyte was determined for at least four different volume fractions (φ) of methanol. […]
Measured parameter: logDpH 9.0
Answers are plain numbers.

These recorded examples may help you get a feel for the data.
- Chemical structure: "Cc1ccnc(C)c1"
  logDpH 9.0: 1.65
- Chemical structure: "Cc1ccnc(N)c1"
  logDpH 9.0: 0.88
- Chemical structure: "CCc1ccccn1"
  logDpH 9.0: 2.05

Hi there! I need logDpH 9.0 for each item below, if you can.
1. Nc1ccccc1
2. CC(C)c1ccc(N)cc1

[reply]
[0.90, 2.23]

Hi there! I need logDpH 9.0 for each item below, if you can.
1. Nc1ccc(F)cc1
2. CN(C)Cc1ccccc1

[reply]
1. 1.15
2. 1.77
